Target: Sphingosine 1-phosphate receptor 3 (Homo sapiens)
Test: S1P3 receptor activation, EC50 – cell-based, NFAT-BLA reporter, dose response (AID 439)
Conditions: inactive by the depositor's call
Quick reference for EC50 among some compounds

Compound: c1ccc(-c2nc3nonc3nc2-c2ccccc2)cc1
EC50: 41.6 µM

Problem: Answer with the recorded EC50 for the compound listed here: CCOc1ccc(-c2noc(-c3ccncc3)n2)cc1OCC
Result: 11.6 µM

Problem: Specify reported EC50 for the compound shown: Cc1ccc(NC(=O)CC2Nc3ccccc3NC2=O)cc1Cl (stereo unspecified)
Result: 80.8 µM

Problem: Complete the entry with EC50 for COc1ccc(CCn2c(C)cc(C(=O)CSc3nnnn3C)c2C)cc1
Result: 18.6 µM

Problem: Give the reported EC50 for this compound. Cn1c(=O)c2c(-c3ccccc3)n(C3CCCCC3)cc2n(C)c1=O
Result: 31.2 µM

Problem: Indicate the recorded EC50 value for this compound: c1ccc(C(Cc2nc(-c3cccnc3)no2)c2ccccc2)cc1
Result: 13.5 µM

Problem: Return reported EC50. Input compound: CC(C)Cn1c(N)c(C(=O)NCc2cccs2)c2nc3ccccc3nc21
Result: 29.7 µM

Problem: Report EC50, nothing else, for this compound: Nc1c(C(=O)NC2CCCC2)c2nc3ccccc3nc2n1CC1CCCO1 (stereo unspecified)
Result: 14.7 µM

Problem: Please give measured EC50 of the following entry: Nc1c(C(=O)NCc2ccc3c(c2)OCO3)c2nc3ccccc3nc2n1CCCN1CCOCC1
Result: 19.1 µM

Problem: Query EC50 for CC(Oc1ccccc1Br)C(=O)N1CCc2ccccc21 (stereo unspecified) [1-[2-(2-bromophenoxy)propanoyl]indoline]
Result: 25.2 µM

---

Biological target: Sphingosine 1-phosphate receptor 3 (Homo sapiens)
Test: S1P3 receptor activation, EC50 – cell-based, NFAT-BLA reporter, dose response (AID 439)
Measured EC50 values are reported for all entries that follow.
Reply numerically in µM, unit not repeated.

As a guide, the following entries are already answered.
Molecule: c1ccc(C(Cc2nc(-c3ccncc3)no2)c2ccccc2)cc1
EC50 (µM): 5.24
//
Molecule: CCOc1ccc(-c2nc(-c3ccncc3)no2)cc1OCC
EC50 (µM): 2.77
//
Molecule: CCCCC(=O)NC(Nc1nc(C2CC2)cs1)(C(=O)OCC)C(F)(F)F (stereo not drawn)
EC50 (µM): 9.87

Moving on to another molecule below.
Problem: Please report EC50 for the following molecule: CCCc1cc(C(=O)N(C2CCCCC2)C2CCCCC2)no1 [MLS000116372]
Result: 2.7

---

Molecular target: Sphingosine 1-phosphate receptor 3 (Homo sapiens)
Test: S1P3 receptor activation, EC50 – cell-based, NFAT-BLA reporter, dose response (AID 439)
Settings: inactive by the depositor's call
Observed property: pEC50
Scale: pEC50 equals -log10([C]), with [C] in mol/L.

Molecule: N#CCSc1nnc(-c2ccccc2)c(-c2ccccc2)n1
Experimental result: 4.32

Problem: Please report the measured pEC50 for CCC(C)c1ccc2oc(-c3ccc(NC(=O)c4nnc[nH]4)cc3)nc2c1 (stereo not drawn)
Result: 4.71

Problem: State its pEC50 for this molecule: Cc1cc(-n2c(=O)c(C#N)cc3c(=O)n4ccccc4nc32)no1
Result: 4.58

Problem: Given O=C(Oc1ccc(-c2nnco2)cc1)N(c1ccccc1)c1ccccc1 , respond with its pEC50.
Result: 4.85

---

Molecular target: Sphingosine 1-phosphate receptor 3 (Homo sapiens, UniProt Q99500)
Sequence (Q99500 whole entry): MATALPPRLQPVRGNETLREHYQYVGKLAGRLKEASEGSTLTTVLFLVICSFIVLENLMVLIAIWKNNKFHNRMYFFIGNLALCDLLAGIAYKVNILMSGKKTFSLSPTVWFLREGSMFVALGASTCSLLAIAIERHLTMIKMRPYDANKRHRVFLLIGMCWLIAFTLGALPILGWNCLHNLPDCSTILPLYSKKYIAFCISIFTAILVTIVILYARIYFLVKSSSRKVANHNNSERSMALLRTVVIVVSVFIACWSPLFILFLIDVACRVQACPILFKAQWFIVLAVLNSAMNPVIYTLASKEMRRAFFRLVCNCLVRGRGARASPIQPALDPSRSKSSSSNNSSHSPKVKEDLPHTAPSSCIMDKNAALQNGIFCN
Assay: S1P3 receptor activation, EC50 – cell-based, NFAT-BLA reporter, dose response (AID 439)
Observed property: EC50 (µM)
Expressed in µM, but write only the number.

Worked examples follow.
Compound: Cc1cc(C)n(-c2nc(NCC(C)O)c3c4c(sc3n2)CCCC4)n1 (stereo not drawn)
Observed property: EC50
Experimental result: 7.79

Compound: CCC(C)NC(=O)c1c(N)n(Cc2ccc3c(c2)OCO3)c2nc3ccccc3nc12 (stereo not drawn)
Observed property: EC50
Experimental result: 7.93

Problem: Provide only the value of recorded EC50 for CCOC(=O)c1cc2ccc(OC(=O)c3ccco3)cc2oc1=O
Result: 7.18

---

Target: UniProt Q99500
Assay: S1P3 receptor activation, EC50 – cell-based, NFAT-BLA reporter, dose response (AID 439)
Conditions: inactive by the depositor's call
Catalogue of EC50 readings, one per entry.
Just the number please, in µM, no unit attached.

Problem: Give the value of EC50 reported for the following: COc1ccc(CCn2c(N)c(C(=O)NCc3ccco3)c3nc4ccccc4nc32)cc1OC
Result: 45

Problem: Supply reported EC50 belonging to this compound: O=c1c2ccccc2nnn1CSc1nnc(C2COc3ccccc3O2)n1-c1ccccc1 (stereo unspecified)
Result: 29.5

Problem: Annotate the compound CCOc1ccc(-c2nc(-c3ccccc3)no2)cc1OCC with its measured EC50.
Result: 19.2

Problem: Provide EC50 value for the following compound: CCCCCCn1c(N)c(C(=O)NCCN2CCOCC2)c2nc3ccccc3nc21
Result: 42.3

Problem: Given COc1ccccc1Oc1cc(C#N)c(C#N)cc1-n1nnc2ccccc21 , respond with its EC50.
Result: 17.2

Problem: Supply measured EC50 of OCCN1CCN(c2nc(-c3ccccc3)c3cc(Cl)ccc3n2)CC1 in your reply.
Result: 108

Problem: Return the recorded EC50 value; entry: Nc1c(C(=O)NCCc2ccccc2)c2nc3ccccc3nc2n1CCN1CCOCC1
Result: 37.5

Problem: Report measured EC50; entry is Cc1onc(-c2c(Cl)cccc2Cl)c1C(=O)N1CCc2ccccc21
Result: 30.8

Problem: Return value of EC50 for input Cc1cc(C)n(-c2nc(NCc3cccnc3)c3c4c(sc3n2)COC(C)(C)C4)n1 , no commentary.
Result: 15.3

Problem: State, in one line, measured EC50 of Cc1ccc(C(C)C)c(OCc2nc(-c3nonc3N)no2)c1
Result: 74.6

Problem: Provide measured EC50 value, entry: CCCn1c(=O)c2ccccc2n2c(SCc3c(C(=O)OCC)oc4ccccc34)nnc12
Result: 23.5

---

We begin with a simple list: items and their reported pEC50.
Biological target: Sphingosine 1-phosphate receptor 3 (Homo sapiens, UniProt Q99500)
Assay: S1P3 receptor activation, EC50 – cell-based, NFAT-BLA reporter, dose response (AID 439)
Conditions: inactive by the depositor's call
// field semantics: pEC50 = negative decimal log of concentration (mol/L)

Check out these entries, answers already filled in.
Molecule: O=C(NCc1ccco1)c1cc2ccc(O)cc2oc1=O
Observed property: pEC50
Experimental result: 4.75
--
Molecule: O=C(NC1=NCCS1)c1cc(-c2ccccc2)nn1-c1ccccc1
Observed property: pEC50
Experimental result: 4.38
--
Molecule: COCCCn1c(N)c(C(=O)NCCC(C)C)c2nc3ccccc3nc21
Observed property: pEC50
Experimental result: 4.50

Turning now to a further record.
Problem: Given Cc1cccn2c(=O)c3cc(C(=O)NC(C)c4ccccc4)c(=N)n(CCCn4ccnc4)c3nc12 (centres undefined) , respond with its pEC50.
Result: 4.76

The reported numbers originate from BindingDB's records for doi:10.7270/Q2PZ576Z.
